Molecular target: T1, extracellular domain (ECD) of human CD47 (19aa-139aa) with C-terminal 6xHis tag (human, UniProt Q08722 19-139)
T1 construct: also called recombinant CD47; recombinant human CD47
T1 sequence (Q08722 other isoform, or with tags, fused parts or gaps limits assumed): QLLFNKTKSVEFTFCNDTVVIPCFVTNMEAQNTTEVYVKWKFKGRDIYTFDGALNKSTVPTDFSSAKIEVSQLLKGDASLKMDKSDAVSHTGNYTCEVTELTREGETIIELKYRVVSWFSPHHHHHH
Assay: ELISA, recombinant human CD47; EC50 as grade, legend the 11th table, row 38
assay metric: EC50

Problem: Returns the measured EC50 for the input binder. Input: hu.18B9.3i LC_Y92A (antibody, name in Kabat numbering, V domains shown, Alanine scan variant of hu.18B9.3i; Kabat numbering) VH: EVQLVESGGGLVQPGGSLRLSCAASGFSFNSGYMSWVRQAPGKGLEWIASIYAGSSGKTYYADWAKGRFTISKTSSKTTVYLQMNSLRAEDTAVYYCARDSGGTYYTDYLYLWGQGTLVTVSS VL: DIQMTQSPSSLSASVGDRVTITCRASEGISSYLSWYQQKPGKAPKLLIYKASTLTSGVPSRFSGSGSGTDFTLTISSLQPEDFATYYCQSTAGSSGSSGYGAAFGGGTKVEIK
Result: 0.01 to 0.5 nM

Problem: Could you tell me which EC50 is on file for hu.18B9.3i HC_S96A (antibody, name in Kabat numbering, V domains shown, Alanine scan variant of hu.18B9.3i; Kabat numbering) VH: EVQLVESGGGLVQPGGSLRLSCAASGFSFNSGYMSWVRQAPGKGLEWIASIYAGSSGKTYYADWAKGRFTISKTSSKTTVYLQMNSLRAEDTAVYYCARDAGGTYYTDYLYLWGQGTLVTVSS VL: DIQMTQSPSSLSASVGDRVTITCRASEGISSYLSWYQQKPGKAPKLLIYKASTLTSGVPSRFSGSGSGTDFTLTISSLQPEDFATYYCQSTYGSSGSSGYGAAFGGGTKVEIK ?
Result: 0.5 to 5 nM

Problem: Fill in the blank: the reported EC50 of hu.18B9.3i LC_S95A (antibody, name in Kabat numbering, V domains shown, Alanine scan variant of hu.18B9.3i; Kabat numbering) VH: EVQLVESGGGLVQPGGSLRLSCAASGFSFNSGYMSWVRQAPGKGLEWIASIYAGSSGKTYYADWAKGRFTISKTSSKTTVYLQMNSLRAEDTAVYYCARDSGGTYYTDYLYLWGQGTLVTVSS VL: DIQMTQSPSSLSASVGDRVTITCRASEGISSYLSWYQQKPGKAPKLLIYKASTLTSGVPSRFSGSGSGTDFTLTISSLQPEDFATYYCQSTYGSAGSSGYGAAFGGGTKVEIK is ____.
Result: 0.01 to 0.5 nM
